Assay: Chemical stability (relative purity loss) of peptide compounds in buffer formulations (Table 6)
Format: physicochemical
Conditions: 50 mM phosphate buffer pH 6.5 + acetonitrile (3:1), 2° C. and 37° C., read-out: Chemical stability (relative purity loss), Buffer pH 6.5
Numbered stars: 1 amine (or outer) side, 2 acyl side, 3 side chain; on linkers, the order of the positions; unused ones are H or OH. Bridge positions count the residues as written; N and C are the ends. Square brackets hold non-standard residues; d marks the D form. Peptide text beside a SMILES is read from it. * marks the point of attachment. Lys(Me,(CH2)4NMe(CH2)4CO) = CN(CCCCC(=O)[*:3])CCCCN(C)CCCC[C@H](N[*:1])C(=O)[*:2]; Trp(1-Me) = Cn1cc(C[C@H](N)C(=O)O)c2ccccc21; 2Nal = N[C@@H](Cc1ccc2ccccc2c1)C(=O)O; 3Pal = N[C@@H](Cc1cccnc1)C(=O)O; Thp = NC1(C(=O)O)CCOCC1; Me2NCH2CH2 = CN(C)CC*; Aib = CC(C)(N)C(=O)O; Sar = CNCC(=O)O
Documented degraded at 24 h across a set of compounds
Provide the reading as a plain figure in %.

>  <compound>
CC(=O)NCCCC[C@@H]1NC(=O)[C@H](Cc2c[nH]c3c(C)cccc23)NC(=O)[C@@H](NC(C)=O)CCCCN(C)CCCCN(C)CCCC[C@@H](C(=O)N[C@@H](CC(N)=O)C(=O)N[C@@H](Cc2cccnc2)C(=O)N(C)CC(N)=O)NC(=O)C(C)(C)NC(=O)[C@@H](Cc2ccc3ccccc3c2)NC(=O)[C@H](Cc2ccc(OCCN(C)C)cc2)NC(=O)C2(CCOCC2)NC1=O

>  <unit-spec>
%

>  <result>
0

$$$$

Endpoint output: degraded at 24 h of CN(C)CCOc1ccc(C[C@@H]2NC(=O)C3(CCOCC3)NC(=O)[C@H](CCC(N)=O)NC(=O)[C@H](Cc3cn(C)c4ccccc34)NC(=O)CCCCN(C)CCCCN(C)CCCC[C@@H](C(=O)NCC(=O)N[C@@H](Cc3cccnc3)C(=O)N(C)CC(N)=O)NC(=O)C(C)(C)NC(=O)[C@H](Cc3ccc4ccccc4c3)NC2=O)cc1 [compound 30] ([Trp(1-Me)]Q[Thp]Y(Me2NCH2CH2)[2Nal][Aib][Lys(Me,(CH2)4NMe(CH2)4CO)]G[3Pal][Sar]-NH2; lactam N-7) . Value?
0

---

Experiment: Solubility of peptide compounds in buffer formulations (Table 5)
Type: physicochemical
Conditions: aqueous buffer; 50 mM phosphate buffer pH 7.4, 2 h agitation, target 1 mg/ml; read-out: Solubility, Buffer pH 7.4
Description: Prior to the solubility measurement of a peptide batch, its purity was determined through UHPLC/MS method A. For solubility testing the target concentration was 1 mg pure compound/ml. […] The solubility was determined by the comparison of the UV peak area of 2 μL-injections of a buffered sample diluted 1:10 with a standard curve of a dimethyl sulfoxide reference sample of known concentration. […]
Numbered stars: 1 amine (or outer) side, 2 acyl side, 3 side chain; on linkers, the order of the positions; unused ones are H or OH. Bridge positions count the residues as written; N and C are the ends. Square brackets hold non-standard residues; d marks the D form. Peptide text beside a SMILES is read from it. * marks the point of attachment. Lys(Me,(CH2)4NMe(CH2)4CO) = CN(CCCCC(=O)[*:3])CCCCN(C)CCCC[C@H](N[*:1])C(=O)[*:2]; Trp(7-Me) = Cc1cccc2c(C[C@H](N)C(=O)O)c[nH]c12; 2Nal = N[C@@H](Cc1ccc2ccccc2c1)C(=O)O; d2Nal = N[C@H](Cc1ccc2ccccc2c1)C(=O)O; 3Pal = N[C@@H](Cc1cccnc1)C(=O)O; Aun = NCCCCCCCCCCC(=O)O; Thp = NC1(C(=O)O)CCOCC1; Me2NCH2CH2 = CN(C)CC*; Aib = CC(C)(N)C(=O)O; Sar = CNCC(=O)O
Listed here: items and their measured solubility at 2 h.
Answer with a number only, understood to be in µg/mL.

>  <compound>
CC(=O)NCCCC[C@@H]1NC(=O)[C@H](Cc2c[nH]c3c(C)cccc23)NC(=O)CCCCN(C)CCCCN(C)CCCC[C@@H](C(=O)NCC(=O)N[C@@H](Cc2cccnc2)C(=O)N(C)CC(N)=O)NC(=O)C(C)(C)NC(=O)[C@H](Cc2ccc3ccccc3c2)NC(=O)[C@H](Cc2ccc(OCCN(C)C)cc2)NC(=O)C2(CCOCC2)NC1=O [compound 29] ([Trp(7-Me)]K(Ac)[Thp]Y(Me2NCH2CH2)[2Nal][Aib][Lys(Me,(CH2)4NMe(CH2)4CO)]G[3Pal][Sar]-NH2; lactam N-7)

>  <solubility at 2 h (µg/mL)>
830

$$$$

Recorded solubility at 2 h of Cc1cccc2c(C[C@@H]3NC(=O)CCCCCCCCCCNC(=O)CC[C@@H](C(=O)N[C@@H](CC(N)=O)C(=O)N[C@@H](Cc4cccnc4)C(=O)N(C)CC(N)=O)NC(=O)C(C)(C)NC(=O)[C@@H](Cc4ccc5ccccc5c4)NC(=O)[C@H](Cc4ccc(OCCN(C)C)cc4)NC(=O)C4(CCOCC4)NC(=O)[C@H](CCC(N)=O)NC3=O)c[nH]c12 [compound 4] ([Aun][Trp(7-Me)]Q[Thp]Y(Me2NCH2CH2)[d2Nal][Aib]EN[3Pal][Sar]-NH2; lactam N-8) , please.
60

---

Assay: Protease stability in simulated gastric fluids (FaSSGF) (Table 7)
Format: in vitro ADME
Details: fassgf with pepsin, 60 min, 37° C., read-out: Remaining percentage of peptide compound, FaSSGF 60 (min)
Numbered stars: 1 amine (or outer) side, 2 acyl side, 3 side chain; on linkers, the order of the positions; unused ones are H or OH. Bridge positions count the residues as written; N and C are the ends. Square brackets hold non-standard residues; d marks the D form. Peptide text beside a SMILES is read from it. * marks the point of attachment. Lys(Me,(CH2)4NMe(CH2)4CO) = CN(CCCCC(=O)[*:3])CCCCN(C)CCCC[C@H](N[*:1])C(=O)[*:2]; Trp(7-Me) = Cc1cccc2c(C[C@H](N)C(=O)O)c[nH]c12; 2Nal = N[C@@H](Cc1ccc2ccccc2c1)C(=O)O; 3Pal = N[C@@H](Cc1cccnc1)C(=O)O; Thp = NC1(C(=O)O)CCOCC1; Me2NCH2CH2 = CN(C)CC*; Aib = CC(C)(N)C(=O)O; Sar = CNCC(=O)O
measurement-kind: remaining at 1 h, 1 µM (%)
Record the value in %, omitting the unit from your answer.

Example entries begin here.
>  <compound>
CN(C)CCOc1ccc(C[C@@H]2NC(=O)C3(CCOCC3)NC(=O)[C@H](CCC(N)=O)NC(=O)[C@H](Cc3c[nH]c4ccccc34)NC(=O)CCCCN(C)CCCCN(C)CCCC[C@@H](C(=O)N[C@@H](CO)C(=O)N[C@@H](Cc3cccnc3)C(=O)N(C)CC(N)=O)NC(=O)C3(CCOCC3)NC(=O)[C@H](Cc3ccc4ccccc4c3)NC2=O)cc1 [compound 43] (WQ[Thp]Y(Me2NCH2CH2)[2Nal][Thp][Lys(Me,(CH2)4NMe(CH2)4CO)]S[3Pal][Sar]-NH2; lactam N-7)

>  <measurement-kind>
remaining at 1 h, 1 µM

>  <result>
71

$$$$
>  <compound>
Cc1cccc2c(C[C@@H]3NC(=O)CCCCN(C)CCCCN(C)CCCC[C@@H](C(=O)NCC(=O)N[C@@H](Cc4cccnc4)C(=O)N(C)CC(N)=O)NC(=O)C(C)(C)NC(=O)[C@H](Cc4ccc5ccccc5c4)NC(=O)[C@H](Cc4ccc(OCCN(C)C)cc4)NC(=O)C4(CCOCC4)NC(=O)[C@H](CCC(N)=O)NC3=O)c[nH]c12 [compound 28] ([Trp(7-Me)]Q[Thp]Y(Me2NCH2CH2)[2Nal][Aib][Lys(Me,(CH2)4NMe(CH2)4CO)]G[3Pal][Sar]-NH2; lactam N-7)

>  <measurement-kind>
remaining at 1 h, 1 µM

>  <result>
101

$$$$

Read the next record carefully.
Give its remaining at 1 h, 1 µM value. Item: "CC(=O)NCCCC[C@@H]1NC(=O)[C@H](Cc2c[nH]c3c(C)cccc23)NC(=O)[C@@H](NC(C)=O)CCCCN(C)CCCCN(C)CCCC[C@@H](C(=O)N[C@@H](CC(N)=O)C(=O)N[C@@H](Cc2cccnc2)C(=O)N(C)CC(N)=O)NC(=O)C(C)(C)NC(=O)[C@@H](Cc2ccc3ccccc3c2)NC(=O)[C@H](Cc2ccc(OCCN(C)C)cc2)NC(=O)C2(CCOCC2)NC1=O"
90

---

Listing: IC50 of selected compounds
System: IL-23 induced STAT3 signaling (IL-23 receptor) in HEK-Blue IL-23 cells
Assay: Inhibition of IL-23 induced STAT3 signaling in HEK-Blue IL-23 cells, SEAP reporter (Table 9)
Type: cell-based
Conditions: human IL23 0.25 ng/ml, overnight, read-out: Inhibition of IL-23 induced pSTAT3 (IC50 nM)
Numbered stars: 1 amine (or outer) side, 2 acyl side, 3 side chain; on linkers, the order of the positions; unused ones are H or OH. Bridge positions count the residues as written; N and C are the ends. Square brackets hold non-standard residues; d marks the D form. Peptide text beside a SMILES is read from it. * marks the point of attachment. Lys(Me,(CH2)4NMe(CH2)5CO) = CN(CCCCCC(=O)[*:3])CCCCN(C)CCCC[C@H](N[*:1])C(=O)[*:2]; Lys(Me,(CH2)4NMe(CH2)4CO) = CN(CCCCC(=O)[*:3])CCCCN(C)CCCC[C@H](N[*:1])C(=O)[*:2]; Trp(7-Me) = Cc1cccc2c(C[C@H](N)C(=O)O)c[nH]c12; Sebacoyl = O=C(CCCCCCCCC(=O)[*:2])[*:1]; 2Nal = N[C@@H](Cc1ccc2ccccc2c1)C(=O)O; 3Pal = N[C@@H](Cc1cccnc1)C(=O)O; Thp = NC1(C(=O)O)CCOCC1; Me2NCH2CH2 = CN(C)CC*; Aib = CC(C)(N)C(=O)O; Sar = CNCC(=O)O
API: value field is a number in nM; no unit string.

Answered examples (2):
>  <compound>
Cc1cccc2c(C[C@@H]3NC(=O)CCCCCCCCC(=O)NCCCC[C@@H](C(=O)N[C@@H](CC(N)=O)C(=O)N[C@@H](Cc4cccnc4)C(=O)N(C)CC(N)=O)NC(=O)C(C)(C)NC(=O)[C@H](Cc4ccc5ccccc5c4)NC(=O)[C@H](Cc4ccc(OCCN(C)C)cc4)NC(=O)C4(CCOCC4)NC(=O)[C@H](CCC(N)=O)NC3=O)c[nH]c12 [compound 11] ([Trp(7-Me)]Q[Thp]Y(Me2NCH2CH2)[2Nal][Aib]KN[3Pal][Sar]-NH2; linker N-7 via Sebacoyl)

>  <unit-spec>
nM

>  <IC50>
0.28

$$$$
>  <compound>
CC(=O)NCCCC[C@@H]1NC(=O)[C@H](Cc2c[nH]c3c(C)cccc23)NC(=O)CCCCCN(C)CCCCN(C)CCCC[C@@H](C(=O)N[C@@H](CC(N)=O)C(=O)N[C@@H](Cc2cccnc2)C(=O)N(C)CC(N)=O)NC(=O)C(C)(C)NC(=O)[C@H](Cc2ccc3ccccc3c2)NC(=O)[C@H](Cc2ccc(OCCN(C)C)cc2)NC(=O)C2(CCOCC2)NC1=O [compound 18] ([Trp(7-Me)]K(Ac)[Thp]Y(Me2NCH2CH2)[2Nal][Aib][Lys(Me,(CH2)4NMe(CH2)5CO)]N[3Pal][Sar]-NH2; lactam N-7)

>  <unit-spec>
nM

>  <IC50>
0.47

$$$$

Name the reported IC50 value associated with the compound CN(C)CCOc1ccc(C[C@@H]2NC(=O)C3(CCOCC3)NC(=O)[C@H](CCC(N)=O)NC(=O)[C@H](Cc3c[nH]c4ccccc34)NC(=O)CCCCN(C)CCCCN(C)CCCC[C@@H](C(=O)N[C@@H](CO)C(=O)N[C@@H](Cc3cccnc3)C(=O)N(C)CC(N)=O)NC(=O)C3(CCOCC3)NC(=O)[C@H](Cc3ccc4ccccc4c3)NC2=O)cc1 [compound 43] (WQ[Thp]Y(Me2NCH2CH2)[2Nal][Thp][Lys(Me,(CH2)4NMe(CH2)4CO)]S[3Pal][Sar]-NH2; lactam N-7)
2.02
